// provenance: patent US20250197467A1

# assay.system: T1, IL-18 receptor (IL-18Rαβ) on cells (UniProt Q13478 19-541; O95256 20-599, limits assumed)
# T1 sequence (looked up) 1: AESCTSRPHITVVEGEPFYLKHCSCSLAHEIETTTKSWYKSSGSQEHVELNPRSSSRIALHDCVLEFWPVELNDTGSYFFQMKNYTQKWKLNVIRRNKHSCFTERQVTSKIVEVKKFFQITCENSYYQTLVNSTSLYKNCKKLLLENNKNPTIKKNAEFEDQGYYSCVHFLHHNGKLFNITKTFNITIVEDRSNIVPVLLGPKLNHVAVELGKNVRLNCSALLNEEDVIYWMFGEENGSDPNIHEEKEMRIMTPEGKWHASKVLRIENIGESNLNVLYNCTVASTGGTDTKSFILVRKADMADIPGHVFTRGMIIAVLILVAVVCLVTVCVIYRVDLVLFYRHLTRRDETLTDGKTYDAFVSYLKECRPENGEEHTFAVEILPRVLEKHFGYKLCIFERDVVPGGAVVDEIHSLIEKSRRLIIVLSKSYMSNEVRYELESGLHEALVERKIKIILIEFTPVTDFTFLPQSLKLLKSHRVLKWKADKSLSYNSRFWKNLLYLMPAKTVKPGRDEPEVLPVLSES
# T1 sequence (looked up) 2: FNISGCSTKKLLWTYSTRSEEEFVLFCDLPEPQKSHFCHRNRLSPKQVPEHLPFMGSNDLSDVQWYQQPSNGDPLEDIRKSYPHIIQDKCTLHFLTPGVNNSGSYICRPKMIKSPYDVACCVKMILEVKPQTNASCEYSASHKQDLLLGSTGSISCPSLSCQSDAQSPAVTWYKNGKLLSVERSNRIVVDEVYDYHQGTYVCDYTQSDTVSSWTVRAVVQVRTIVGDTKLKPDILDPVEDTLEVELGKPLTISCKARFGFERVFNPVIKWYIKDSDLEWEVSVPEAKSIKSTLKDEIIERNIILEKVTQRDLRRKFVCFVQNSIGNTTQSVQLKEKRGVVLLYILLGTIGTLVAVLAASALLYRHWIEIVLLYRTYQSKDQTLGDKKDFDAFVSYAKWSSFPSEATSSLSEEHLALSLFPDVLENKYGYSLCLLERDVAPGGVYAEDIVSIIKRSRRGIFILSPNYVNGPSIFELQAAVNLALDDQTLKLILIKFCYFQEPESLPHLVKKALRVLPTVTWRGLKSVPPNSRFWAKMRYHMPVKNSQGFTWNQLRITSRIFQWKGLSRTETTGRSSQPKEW
# measurement.notes: cell-based or functional assay
outcome.measure: HEK-Blue IL-18R reporter EC50 (pM)
Answers are plain numbers, in pM.

C159 (ligand) YFGKLESKLSIIRNLNDQVLFIDQGNRPLFEDMTDSDARDNAPRTIFIISMYADSQPRGMAVTISVKCEKISTLSAENKIISFKEMNPPDNIKDTKSDIIFFQRSVPGADNKMQFESSSYEGYFLAAEKERDLFKLILKKEDELGDRSIMFTVQNED	19.5

query: Would you mind telling me what HEK-Blue IL-18R reporter EC50 value was observed for C179 (ligand) YFGKLKSELSIIRNLNDQVLFIDQGNRPLFEDMTDSDARDNAPRTIFIISMYADSQPRGMAVAISVKCEKISTLSAENKIISFKEMNPPDNIKDTKSDIIFFRRSVPGHDNKMQFESSSYEGYFLAAEKERDLFKLILKKEDELGDRSIMFTVQNED ?
result: 0.4
